- target-entity: Delta-type opioid receptor (Rattus norvegicus)
- Sequence (P33533 whole entry): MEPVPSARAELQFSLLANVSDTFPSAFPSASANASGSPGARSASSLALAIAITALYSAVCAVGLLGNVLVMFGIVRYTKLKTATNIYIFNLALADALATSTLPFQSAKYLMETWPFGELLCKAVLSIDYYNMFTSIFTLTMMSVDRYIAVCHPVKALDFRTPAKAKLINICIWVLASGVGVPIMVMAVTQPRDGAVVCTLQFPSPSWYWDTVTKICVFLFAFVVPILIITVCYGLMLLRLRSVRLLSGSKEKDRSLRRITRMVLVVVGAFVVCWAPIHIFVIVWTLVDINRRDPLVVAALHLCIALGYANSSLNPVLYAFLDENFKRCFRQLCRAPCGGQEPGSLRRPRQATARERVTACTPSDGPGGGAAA
- test: Displacement of [3H]Ile5,6deltorphin-2 from delta opioid receptor in Wistar rat brain membranes by liquid scintillation counting
Non-standard residues stand in square brackets, D forms with d. Residues, ends and D or L forms follow the SMILES beside them. *: point of attachment. NHCH2CH2OH = OCCN*; Sar = CNCC(=O)O
Measured Ki, listed per entry for reference.

# compound, target-entity, Ki
records = [
    ("CN(CC(=O)N[C@@H](Cc1ccccc1)C(=O)NCCO)C(=O)[C@@H]1CCCN1C(=O)[C@@H](N)Cc1ccc(O)cc1 (H-YP[Sar]F-NHCH2CH2OH)", "Delta-type opioid receptor (Rattus norvegicus)", "> 10 µM"),
    ("C[C@@H](NC(=O)[C@@H](N)Cc1ccc(O)cc1)C(=O)NCC(=O)N(C)[C@@H](Cc1ccccc1)C(=O)NCCO [DAMGO]", "Delta-type opioid receptor (Rattus norvegicus)", "> 10 µM"),
]

Let us move to another entry and its Ki.
Fill in the recorded Ki for this compound, with Delta-type opioid receptor (Rattus norvegicus) as test system: "CN(C(=O)[C@@H]1CCCN1C(=O)[C@@H](N)Cc1ccc(O)cc1)[C@@H](Cc1ccccc1)C(=O)N[C@@H](Cc1ccccc1)C(=O)NCCO.O=C(O)C(F)(F)F" > 10 µM
